Every entry's value here was drawn from patent US20260258003A1.

- procedureSummary: In vivo pharmacokinetic study, plasma and brain levels by LC-MS
- Parameters: species or system mice
- measurementConditions: male, C57BL/6, mouse, in vivo, ip, 1 mg/kg
- Procedure: The compounds pharmacokinetic properties were examined in vivo by administering the compounds intraperitoneally (i.p.) at 1 mg/kg in mice, and determining plasma and brain levels over 8 h by LC-MS measurements. The pharmacokinetic study was performed by Pharmacelsus (Saarbrücken, Germany). In total 27 male C57BL/6 mice (8 weeks old, 23-31 g body weight, purchased from Janvier Labs, France) were used. […]
# label = MET if Cmax < 40 ng/mL else NOT MET

Completed entries (count: 3):
# structureAsSmiles, answerLabel
records = [
    ("CN1CCN(C2=Nc3ccccc3Oc3ccc(C(F)(F)F)cc32)CC1", "MET"),
    ("O=C(O)COCCN1CCN(C2=Nc3ccccc3Oc3ccc(C(F)(F)F)cc32)CC1", "NOT MET"),
    ("O=C(O)COCCN1CCCN(C2=Nc3ccccc3Oc3ccc(C(F)(F)F)cc32)CC1", "NOT MET"),
]

Let's switch to this compound now.
Hello, I'm reviewing records and need to know if Cmax of OCCN1CCN(C2=Nc3ccccc3Oc3ccc(Cl)cc32)CC1 is below 40 ng/mL. Could you check?
NOT MET

====

- procedureSummary: In vivo pharmacokinetic study, plasma and brain levels by LC-MS
- Set-up: species or system mice
- measurementConditions: male, C57BL/6, mouse, in vivo, ip, 1 mg/kg
- Experimental: The compounds pharmacokinetic properties were examined in vivo by administering the compounds intraperitoneally (i.p.) at 1 mg/kg in mice, and determining plasma and brain levels over 8 h by LC-MS measurements. The pharmacokinetic study was performed by Pharmacelsus (Saarbrücken, Germany). In total 27 male C57BL/6 mice (8 weeks old, 23-31 g body weight, purchased from Janvier Labs, France) were used. […]
quantityName: Tmax (min)
Give bare numbers, in min.

Study these solved cases before continuing.
# structureAsSmiles, unitSymbol, Tmax
rows = [
    ("OCCOCCN1CCN(C2=Nc3ccccc3Sc3ccc(Cl)cc32)CC1", "min", 15),
    ("O=C(O)COCCN1CCCN(C2=Nc3ccccc3Oc3ccc(C(F)(F)F)cc32)CC1", "min", 15),
    ("CN1CCN(C2=Nc3ccccc3Oc3ccc(C(F)(F)F)cc32)CC1", "min", 15),
    ("OCCN1CCN(C2=Nc3ccccc3Oc3ccc(Cl)cc32)CC1", "min", 15),
    ("CN1CCN(C2=Nc3cc(F)ccc3Oc3ccc(C(F)(F)F)cc32)CC1", "min", 30),
]

Look up Tmax for the entries below, preserving their order.
1. O=C(O)COCCN1CCN(C2=Nc3ccccc3Oc3ccc(C(F)(F)F)cc32)CC1
2. CN1CCCN(C2=Nc3ccccc3Oc3ccc(C(F)(F)F)cc32)CC1
3. O=C(O)COCCN1CCN(C2=Nc3ccccc3Oc3ccc(Cl)cc32)CC1

[15, 30, 15]

====

- procedureSummary: In vivo pharmacokinetic study, plasma and brain levels by LC-MS
- Design: species or system mice
- measurementConditions: male, C57BL/6, mouse, in vivo, ip, 1 mg/kg
- Method: The compounds pharmacokinetic properties were examined in vivo by administering the compounds intraperitoneally (i.p.) at 1 mg/kg in mice, and determining plasma and brain levels over 8 h by LC-MS measurements. The pharmacokinetic study was performed by Pharmacelsus (Saarbrücken, Germany). In total 27 male C57BL/6 mice (8 weeks old, 23-31 g body weight, purchased from Janvier Labs, France) were used. […]
Provide the reported AUC(0-t) of each item.
Give bare numbers, in ng·h/mL.

# structureAsSmiles, reportedMeasurement
rows = [
    ("OCCOCCN1CCN(C2=Nc3ccccc3Sc3ccc(Cl)cc32)CC1", 71.2),
    ("O=C(O)COCCN1CCN(C2=Nc3ccccc3Oc3ccc(C(F)(F)F)cc32)CC1", 675),
]

Find the recorded AUC(0-t) belonging to CN1CCCN(C2=Nc3ccccc3Oc3ccc(C(F)(F)F)cc32)CC1 and report it.
55.4

====

- procedureSummary: In vivo pharmacokinetic study, plasma and brain levels by LC-MS
- Parameters: species or system mice
- measurementConditions: male, C57BL/6, mouse, in vivo, ip, 1 mg/kg
quantityName: Cmax (ng/mL)
Answers are plain numbers, in ng/mL.

# structureAsSmiles, unitSymbol, Cmax
measured = [
    ("CN1CCN(C2=Nc3cc(F)ccc3Oc3ccc(C(F)(F)F)cc32)CC1", "ng/mL", 40),
    ("CN1CCCN(C2=Nc3ccccc3Oc3ccc(C(F)(F)F)cc32)CC1", "ng/mL", 32.3),
]

Provide Cmax for all items below, preserving their order.
1. OCCOCCN1CCN(C2=Nc3ccccc3Sc3ccc(Cl)cc32)CC1
2. O=C(O)COCCN1CCN(C2=Nc3ccccc3Oc3ccc(Cl)cc32)CC1

87.2
240
